# maps each entry to its growth inhibition
# protocolText: NCI Yeast Anticancer Drug Screen. Data for the mlh1 rad18 strain (AID 175)
# testSettings: S. cerevisiae mlh1 rad18 strain growth inhibition; at 50.0 µM (retest, dose inferred, filed as 5.0); active compounds read high
This is part of a sample that, as a whole, favours compounds with a hit. Of some 79,000 tested, about 15% had one in any assay.
Just the number in %, nothing appended.

COc1cc(N=Nc2ccccc2)cc(/C=N/NC(N)=S)c1O : 73
COc1ccc(C)cc1NC(=O)ON=C1CCCCC1 : 94
CN(C)c1ccc(C(O)(Cc2cccnc2)c2ccc(N(C)C)cc2)cc1 : 8
Cc1cc[n+](C2CCC3(C)C(=CCC4C3CCC3(C)C(C(C)CCCC(C)C)CCC43)C2)cc1 (configuration not stated) : 97

Lookup: Please give the measured growth inhibition for this molecule: `CC(C)OC(=O)c1ccccc1C(=C1C=C(Br)C(=O)C(Br)=C1)c1cc(Br)c(O)c(Br)c1`
Found: 96

Lookup: Consider the molecule `O=C(O)CCCCCCCCC(=O)O.[Ag]` and give its measured growth inhibition.
Found: 99

Lookup: // lookup growth inhibition for `Cc1cc(N/N=C/c2ccc([N+](=O)[O-])o2)c2cc3c(cc2n1)OCO3`
Found: 99

Lookup: Name the reported growth inhibition value associated with the molecule `O=[N+]([O-])c1ccc2c(c1)[nH]c1ccccc12`
Found: -10

Lookup: Dear colleague, I am looking for the recorded growth inhibition of the following molecule: `Cc1ccccc1SCc1nc2ccccc2c(C)[n+]1[O-]`
Found: 89

Lookup: Entry `Cc1c2cnccc2c(C)c2c1sc1ccccc12` has what growth inhibition?
Found: 92

Lookup: Param item = `Cc1ccccc1CN(C)CCO` ; retrieve measured growth inhibition.
Found: -6

Lookup: State the recorded growth inhibition for this entry: O=C1OS(=O)(=O)c2cc3c(cc21)C1C(C2C3C3(Cl)C(Cl)=C(Cl)C2(Cl)C3(Cl)Cl)C2(Cl)C(Cl)=C(Cl)C1(Cl)C2(Cl)Cl (configuration not stated)
Found: 91

Lookup: What growth inhibition value was documented for this molecule, `CS/C(C#N)=C(\C#N)SC` ?
Found: 35

Lookup: Fill in the blank: the reported growth inhibition of `O=S(=O)(NC1CCCCC1)c1ccc2c(c1)OCCOCCOCCOCCO2` is ____.
Found: 31

Lookup: For the molecule shown here, CC(C)(C)C1CCC(SCCO)CC1 (configuration not stated) , give the reported growth inhibition.
Found: 99

Lookup: Param item = CCC(C)SC1SCC2C(=O)N(C)C3(CC3C)C(=O)OCC(NC(=O)c3nc4ccccc4cc3O)C(=O)NC(C)C(=O)N(C)C1C(=O)N(C)C1(CC1C)C(=O)OCC(NC(=O)c1nc3ccccc3cc1O)C(=O)NC(C)C(=O)N2C (configuration not stated) ; retrieve measured growth inhibition.
Found: 84

Lookup: For `N#C/C(=C1C=C/C(=N/O)C=C/1Cl)c1ccccc1` , what is its reported growth inhibition?
Found: 10

Lookup: Sample Nc1nc(=O)n(C2OC(CO)C(O)C2O)cc1[N+](=O)[O-] (configuration not stated) — what was its growth inhibition?
Found: -5

Lookup: Give the measured growth inhibition of COc1cc2c(c(OC)c1OC)-c1ccc(O)c(=O)cc1C(N=Cc1ccccc1)CC2 (configuration not stated) .
Found: 0

Lookup: Need growth inhibition, item `O=C1C(Cl)=CC(=NCl)C=C1Cl`
Found: 86

Lookup: Request the reported growth inhibition associated with `O=C(Nc1cccc(Cl)c1)c1ccc([N+](=O)[O-])cc1`
Found: 26

Lookup: // growth inhibition lookup, key: `C/C=C\c1cc2c(cc1CC#N)OCO2`
Found: 39
